- tested_target: human MC4R (Homo sapiens)
- Sequence (P32245 whole entry): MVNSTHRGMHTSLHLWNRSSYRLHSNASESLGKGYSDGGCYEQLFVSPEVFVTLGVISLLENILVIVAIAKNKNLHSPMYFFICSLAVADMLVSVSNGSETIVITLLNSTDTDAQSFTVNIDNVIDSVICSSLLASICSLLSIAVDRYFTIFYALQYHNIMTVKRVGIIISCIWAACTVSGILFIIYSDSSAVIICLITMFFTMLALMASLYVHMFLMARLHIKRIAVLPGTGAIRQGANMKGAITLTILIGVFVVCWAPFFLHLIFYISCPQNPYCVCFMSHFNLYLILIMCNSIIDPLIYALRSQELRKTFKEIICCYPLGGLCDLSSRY
- test_name: Intracellular cAMP levels in live cells, MC3R selectivity relative to MC4R
- Format: cell-based
- test_settings: cAMP assays in human MC3R and human MC4R stable cell lines
- Description: The stable cell lines were grown and maintained in selection media consisting of Dulbecco's modified Eagle media (DMEM) with 4.5 g/l D-glucose, and 4 mM L-glutamine (Thermo Fisher Scientific, Waltham, MA), supplemented with 10% fetal bovine serum, 100 units/ml penicillin, 100 μg/ml streptomycin, 2.5 μg/ml amphotericin B, 200 μg/ml hygromycin B (for positive selection of the GScAMP22f luciferase reporter), and Geneticin™ (G418) 700 μg/ml (for MC3R or MC4R selection). […]
Non-standard residues stand in square brackets, D forms with d. Residues, ends and D or L forms follow the SMILES beside them. Phe(4-Cl) = N[C@@H](Cc1ccc(Cl)cc1)C(=O)O; 2Nal = N[C@@H](Cc1ccc2ccccc2c1)C(=O)O; Nle = CCCC[C@H](N)C(=O)O

| compound | tested_target | MC3R selectivity (relative to MC4R) |
| --- | --- | --- |
| CCCC[C@H](NC(=O)[C@@H](NC(=O)[C@@H](N)Cc1ccc(O)cc1)C(C)C)C(=O)N[C@@H](C)C(=O)N[C@@H](Cc1c[nH]cn1)C(=O)N[C@@H](Cc1ccccc1)C(=O)N[C@@H](CCCNC(=N)N)C(=O)N[C@H](Cc1c[nH]c2ccccc12)C(=O)N[C@@H](CC(=O)O)C(N)=O [CTX-1129, Tyr-Val-Nle-Ala-His-Phe-Arg-D-Trp-Asp] (H-YV[Nle]AHFR[dW]D-NH2) | human MC4R (Homo sapiens) | 7.5 |
| CCCC[C@H](NC(=O)[C@@H](NC(=O)[C@@H](N)Cc1ccc(O)cc1)C(C)C)C(=O)N[C@H](C)C(=O)N[C@@H](Cc1c[nH]cn1)C(=O)N[C@@H](Cc1ccc(Cl)cc1)C(=O)N[C@@H](CCCNC(=N)N)C(=O)N[C@H](Cc1c[nH]c2ccccc12)C(=O)N[C@@H](CC(=O)O)C(=O)N[C@@H](CCCNC(=N)N)C(=O)N[C@@H](Cc1ccccc1)C(=O)NCC(=O)O [CTX-2121] (H-YV[Nle][dA]H[Phe(4-Cl)]R[dW]DRFG-OH) | human MC4R (Homo sapiens) | 93 |
| CCCC[C@H](NC(C)=O)C(=O)N[C@H](C)C(=O)N[C@@H](Cc1c[nH]cn1)C(=O)N[C@@H](Cc1ccc2ccccc2c1)C(=O)N[C@@H](CCCNC(=N)N)C(=O)N[C@H](Cc1c[nH]c2ccccc12)C(=O)N[C@@H](CC(=O)O)C(=O)N[C@@H](CCCNC(=N)N)C(=O)N[C@@H](Cc1ccccc1)C(=O)NCC(=O)O [CTX-1512] (Ac-[Nle][dA]H[2Nal]R[dW]DRFG-OH) | human MC4R (Homo sapiens) | 804 |
| CCCC[C@H](NC(=O)[C@@H](NC(=O)[C@H](N)Cc1ccc(O)cc1)C(C)C)C(=O)N[C@H](C)C(=O)N[C@@H](Cc1c[nH]cn1)C(=O)N[C@@H](Cc1ccccc1)C(=O)N[C@@H](CCCNC(=N)N)C(=O)N[C@H](Cc1c[nH]c2ccccc12)C(=O)N[C@@H](CC(=O)O)C(N)=O [CTX-1142] (H-[dY]V[Nle][dA]HFR[dW]D-NH2) | human MC4R (Homo sapiens) | 54 |
| CCCC[C@H](NC(=O)[C@@H](NC(=O)[C@@H](N)Cc1ccc(O)cc1)C(C)C)C(=O)N[C@H](C)C(=O)N[C@@H](Cc1c[nH]cn1)C(=O)N[C@@H](Cc1ccccc1)C(=O)N[C@@H](CCCNC(=N)N)C(=O)N[C@H](Cc1c[nH]c2ccccc12)C(=O)N[C@@H](CC(=O)O)C(N)=O [CTX-1108, Tyr-Val-Nle-D-Ala-His-Phe-Arg-D-Trp-Asp] (H-YV[Nle][dA]HFR[dW]D-NH2) | human MC4R (Homo sapiens) | 79 |
| CCCC[C@H](NC(C)=O)C(=O)N[C@H](C)C(=O)N[C@@H](Cc1c[nH]cn1)C(=O)N[C@@H](Cc1ccccc1)C(=O)N[C@@H](CCCNC(=N)N)C(=O)N[C@H](Cc1c[nH]c2ccccc12)C(=O)N[C@@H](Cc1ccccc1)C(N)=O [CTX-1541, Nle-D-Ala-His-Phe-Arg-D-Trp-Phe] (Ac-[Nle][dA]HFR[dW]F-NH2) | human MC4R (Homo sapiens) | 9 |
